From: patent US20260070976A1

- system-tested: cynomolgus PILRA on HEK293F cells (cynomolgus monkey, UniProt A0A7N9CRU1 20-292)
- Sequence (A0A7N9CRU1 entry or part of it): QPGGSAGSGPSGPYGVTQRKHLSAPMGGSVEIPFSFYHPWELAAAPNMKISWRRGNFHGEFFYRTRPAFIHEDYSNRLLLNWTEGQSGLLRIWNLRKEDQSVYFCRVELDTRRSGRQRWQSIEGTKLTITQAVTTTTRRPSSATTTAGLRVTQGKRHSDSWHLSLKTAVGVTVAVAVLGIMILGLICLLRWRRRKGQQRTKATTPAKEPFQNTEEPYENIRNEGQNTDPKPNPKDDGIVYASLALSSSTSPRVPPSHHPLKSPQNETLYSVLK
- experimental-protocol: cA Kd of Table 9; method not stated (Example 8: HEK293F overexpressing cells, FACS)
measure: Kd (nM)
Field format: number, assumed nM, no unit text.

Would you please look over these solved cases?
binder	Kd (nM)
X7 (antibody, human IgG4, V domains shown, conditioned media in the HEK293F assays) VH: QVQLVQSGAEVKKPGSSVKVSCKASGYNFLNYDVNWVRQAPGQGLEWMGGIIPIFGTANYAQKFQGRVTITADESTSTAYMELSSLRSEDTAVYYCATGVGAGWFDPWGQGTLVTVSS VL: DIVMTQSPDSLAVSLGERATINCKSSQSVFFDENNKNYLAWYQQKPGQPPKLLIYWASTRESGVPDRFSGSGSGTDFTLTISSLQAEDVAVYYCQQYFEEPYTFGQGTRLEIK	2
X18 (antibody, human IgG4, V domains shown, conditioned media in the HEK293F assays) VH: QVQLVQSGAEVKKPGSSVKVSCKASGYNFLHYDVNWVRQAPGQGLEWMGGIIPIFGTANYAQKFQGRVTITADESTSTAYMELSSLRSEDTAVYYCATAVGAGWFDTWGQGTLVTVSS VL: DIVMTQSPDSLAVSLGERATINCKSSQSVWFDPNNKNYLAWYQQKPGQPPKLLIYWASTRESGVPDRFSGSGSGTDFTLTISSLQAEDVAVYYCQQYFEEPYTFGQGTRLEIK	0.2
X14 (antibody, human IgG4, V domains shown, conditioned media in the HEK293F assays) VH: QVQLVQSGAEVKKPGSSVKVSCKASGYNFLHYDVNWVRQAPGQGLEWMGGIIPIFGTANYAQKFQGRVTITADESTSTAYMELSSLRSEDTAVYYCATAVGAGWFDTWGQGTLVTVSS VL: DIVMTQSPDSLAVSLGERATINCKSSQSVYFSPNNKNYLAWYQQKPGQPPKLLIYWASTRESGVPDRFSGSGSGTDFTLTISSLQAEDVAVYYCQQYFEEPYTFGQGTRLEIK	0.3

Would you kindly look at the next entry?
input: Look up Kd: X11 (antibody, human IgG4, V domains shown, conditioned media in the HEK293F assays) VH: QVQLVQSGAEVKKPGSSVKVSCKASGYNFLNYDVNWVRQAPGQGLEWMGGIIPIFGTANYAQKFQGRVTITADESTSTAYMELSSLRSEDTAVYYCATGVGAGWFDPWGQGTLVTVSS VL: DIVMTQSPDSLAVSLGERATINCKSSQSVYFSENNKNYLAWYQQKPGQPPKLLIYWASTRESGVPDRFSGSGSGTDFTLTISSLQAEDVAVYYCQQYYEEPYTFGQGTRLEIK
output: 2.3
